VALUE_TYPE: melting point

Cc1ccc(NS(=O)(=O)/C(C#N)=C/c2sccc2C)c(C)c1 :: 166 to 168 °C
Cc1ccc(/C=C(\C#N)S(=O)(=O)Cc2ccc(Cl)cc2)cc1C :: 191 to 202 °C

Request: // query melting point value for entry `N#C/C(=C\c1c[nH]c2ccc(Br)cc12)S(=O)(=O)Cc1ccc(Cl)cc1`
Result: 240 to 250 °C

Request: // query melting point value for entry `COc1ccc(/C=C(\C#N)S(=O)(=O)Nc2ccc(C)cc2C)c(F)c1`
Result: 142 to 144 °C

Request: // query melting point value for entry `N#C/C(=C\c1ccccc1OCc1ccccc1)S(=O)(=O)Cc1ccccc1`
Result: 93 to 97 °C

Request: // query melting point value for entry `N#C/C(=C\c1ccc(O)cc1O)S(=O)(=O)Cc1ccc(Cl)cc1Cl`
Result: 220 to 230 °C
